# system_tested: human arginase I (wild-type hargI, His6-tagged) (Homo sapiens)
# Construct: TEV protease site and linker (N)
# Sequence (P05089 with tags, fused parts or gaps): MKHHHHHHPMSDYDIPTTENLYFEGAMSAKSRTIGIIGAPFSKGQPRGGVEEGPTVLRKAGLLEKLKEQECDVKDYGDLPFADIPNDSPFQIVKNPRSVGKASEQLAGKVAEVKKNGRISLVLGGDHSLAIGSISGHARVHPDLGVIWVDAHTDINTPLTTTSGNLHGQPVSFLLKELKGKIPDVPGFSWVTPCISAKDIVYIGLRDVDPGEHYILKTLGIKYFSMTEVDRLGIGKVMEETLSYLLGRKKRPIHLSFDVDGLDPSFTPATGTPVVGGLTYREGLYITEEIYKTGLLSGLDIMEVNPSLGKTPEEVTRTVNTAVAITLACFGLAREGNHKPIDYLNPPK
# assay_notes: MST binding assay, hargI
# measurement_parameters: MST, ABH to hargI, MST buffer pH 7.5
reported_metric: Kd

input: Report measured Kd; entry is N[C@@H](CCCCB(O)O)C(=O)O [ABH, 2-(S)-amino-6-boronohexanoic acid]
output: ~600 nM
